Data credit: patent US20250179057A1

molecular target: UniProt:P10635; test: CYP450 panel inhibition in human liver microsomes, 2D6 (dextromethorphan); conditions: 10 μM, substrate dextromethorphan
Sequence (P10635 whole entry): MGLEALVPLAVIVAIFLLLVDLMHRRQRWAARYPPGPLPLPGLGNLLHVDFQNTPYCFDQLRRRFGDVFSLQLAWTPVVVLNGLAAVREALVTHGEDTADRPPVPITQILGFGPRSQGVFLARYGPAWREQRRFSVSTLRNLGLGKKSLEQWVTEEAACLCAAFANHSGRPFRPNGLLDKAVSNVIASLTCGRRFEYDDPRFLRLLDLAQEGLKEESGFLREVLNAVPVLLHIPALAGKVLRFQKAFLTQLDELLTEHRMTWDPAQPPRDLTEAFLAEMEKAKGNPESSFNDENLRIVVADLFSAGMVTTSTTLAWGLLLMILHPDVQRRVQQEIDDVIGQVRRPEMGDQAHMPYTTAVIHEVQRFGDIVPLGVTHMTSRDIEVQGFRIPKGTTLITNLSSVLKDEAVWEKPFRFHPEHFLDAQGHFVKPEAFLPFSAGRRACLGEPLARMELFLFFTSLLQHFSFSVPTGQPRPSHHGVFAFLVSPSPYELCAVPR
endpoint-label: CYP-2D6 (Dextromethorphan) mean percentage CYP inhibition (%)
Quick reminder: number only, in %, skip the unit.

Examples with their reported CYP-2D6 (Dextromethorphan) mean percentage CYP inhibition follow.
CNS(=O)(=O)Nc1cccc(Cc2c(CN3CCNCC3)c3cc(F)c(OC(=O)N(C)C)cc3oc2=O)c1F : 0.5
CCS(=O)(=O)Nc1cccc(Cc2c(CN(C)C)c3ccc(OC(=O)N(C)C)cc3oc2=O)c1F : −1.9
CNS(=O)(=O)Nc1nccc(Cc2c(CN(C)C)c3ccc(OC(=O)N(C)C)cc3oc2=O)c1F : 10.8

Readout CYP-2D6 (Dextromethorphan) mean percentage CYP inhibition for "CCCS(=O)(=O)Nc1cccc(Cc2c(CN3CCNCC3)c3cc(Cl)c(OC(=O)N(C)C)cc3oc2=O)c1F" , test system UniProt:P10635, was 10.1

Readout CYP-2D6 (Dextromethorphan) mean percentage CYP inhibition for "CNS(=O)(=O)Nc1cccc(Cc2c(CN(C)C)c3ccc(OC(=O)N(C)C)cc3oc2=O)c1F" , test system UniProt:P10635, was 4.4

Form: item "CNS(=O)(=O)Nc1cccc(Cc2c(CN(C)C)c3cc(F)c(OC(=O)N(C)C)cc3oc2=O)c1F" ; test system UniProt:P10635; CYP-2D6 (Dextromethorphan) mean percentage CYP inhibition: 5.7
